These measurements were taken from PubChem BioAssay AID1918941.

Tested on: SW 1271 complex spheroids, viability
Assay: Anticancer human tumor SW 1271 cell line growth inhibition [LSD1];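 further: spheroids exposed to agents for 7 days before luminescence read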;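 on viability, T/C: 100% = DMSO vehicle control viability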
Settings: second compound 10 µM; first compound 0.1 µM; stronger effect = lower value
Entries and their measured viability, T/C follow.
endpoint.label: viability, T/C (%)

CC(C)c1c(-c2ccccc2)nc2c(C#N)c[nH]n2c1=O + NC1CC1c1ccc(-c2cccc(O)c2)cc1 ... 63
CC(C)CC(NC(=O)CNC(=O)c1cc(Cl)ccc1Cl)B1OC(=O)CC(CC(=O)O)(C(=O)O)O1 (configuration not stated) + NC1CCC(NC2CC2c2ccccc2)CC1 ... 0.38
CC1COCCN1c1cc(C2(S(C)(=N)=O)CC2)nc(-c2ccnc3[nH]ccc23)n1 (configuration not stated) + NC1CCC(NC2CC2c2ccccc2)CC1 ... 92.3
CC(C)CC(NC(=O)C(Cc1ccccc1)NC(=O)c1cnccn1)B(O)O (configuration not stated) + NC1CC1c1ccc(-c2cccc(O)c2)cc1 ... 0.19
O=C(c1cc(Cc2n[nH]c(=O)c3ccccc23)ccc1F)N1CCN(C(=O)C2CC2)CC1 + NC1CC1c1ccc(-c2cccc(O)c2)cc1 ... 66.8
Cn1ncnc1C1c2n[nH]c(=O)c3cc(F)cc(c23)NC1c1ccc(F)cc1 (configuration not stated) + NC1CC1c1ccc(-c2cccc(O)c2)cc1 ... 49.7
Cn1ncnc1C1c2n[nH]c(=O)c3cc(F)cc(c23)NC1c1ccc(F)cc1 (configuration not stated) + NC1CCC(NC2CC2c2ccccc2)CC1 ... 81.7
CC1COCCN1c1cc(C2(S(C)(=N)=O)CC2)nc(-c2ccnc3[nH]ccc23)n1 (configuration not stated) + NC1CC1c1ccc(-c2cccc(O)c2)cc1 ... 61.1
CC1(C)CCC(CN2CCN(c3ccc(C(=O)NS(=O)(=O)c4ccc(NCC5CCOCC5)c([N+](=O)[O-])c4)c(Oc4cnc5[nH]ccc5c4)c3)CC2)=C(c2ccc(Cl)cc2)C1 + NC1CC1c1ccc(-c2cccc(O)c2)cc1 ... 65.6
CC[C@@]1(O)C(=O)OCc2c1cc1n(c2=O)Cc2cc3c(CN(C)C)c(O)ccc3nc2-1 + NC1CC1c1ccc(-c2cccc(O)c2)cc1 ... 47.3
CC1COCCN1c1cc(-c2ccnn2C)c2ccnc(-c3ccn[nH]3)c2n1 (configuration not stated) + NC1CC1c1ccc(-c2cccc(O)c2)cc1 ... 41.6
CC(C)CC(NC(=O)C(Cc1ccccc1)NC(=O)c1cnccn1)B(O)O (configuration not stated) + NC1CCC(NC2CC2c2ccccc2)CC1 ... 0.19

---

Tested on: SW 1271 complex spheroids, viability
Test: Anticancer human tumor SW 1271 cell line growth inhibition [LSD1];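 further: spheroids exposed to agents for 7 days before luminescence read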
Settings: curve of first compound; second compound 1 µM
Description: Multicellular complex tumor spheroid response to LSD1 Inhibitor Iadademstat in combination with a variety of drugs and investigational agents in selected tumor cell lines The current study was undertaken to assess response to LSD1 inhibitors in combination with standard-of-care drugs and investigational agents in solid tumor complex spheroid models as well as in the K-562 leukemia. […] Compounds. […] If the clinical Cmax for an agent had not been determined, the highest concentration tested was 10 microM. […]
endpoint.label: log10 IC50 (log10 of the value in nM)

COc1ccc([C@@H](O)c2cc(-c3ncnc4cc(N5CCOCC5)ccc34)c(F)cc2Cl)nn1 + NC1CC1c1ccc(-c2cccc(O)c2)cc1 ... 2.82
O=C(C=Cn1cnc(-c2cc(C(F)(F)F)cc(C(F)(F)F)c2)n1)NNc1cnccn1 + NC1CCC(NC2CC2c2ccccc2)CC1 ... 2.36
CCc1c2c(nc3ccc(O)cc13)-c1cc3c(c(=O)n1C2)COC(=O)[C@]3(O)CC + NC1CCC(NC2CC2c2ccccc2)CC1 ... 0.55
CC(C)CC(NC(=O)CNC(=O)c1cc(Cl)ccc1Cl)B1OC(=O)CC(CC(=O)O)(C(=O)O)O1 (stereo not drawn) + NC1CCC(NC2CC2c2ccccc2)CC1 ... 0.71
COc1ccc([C@@H](O)c2cc(-c3ncnc4cc(N5CCOCC5)ccc34)c(F)cc2Cl)nn1 + NC1CCC(NC2CC2c2ccccc2)CC1 ... 2.78
CC(C)CC(NC(=O)CNC(=O)c1cc(Cl)ccc1Cl)B1OC(=O)CC(CC(=O)O)(C(=O)O)O1 (stereo not drawn) + NC1CC1c1ccc(-c2cccc(O)c2)cc1 ... 0.64
COc1cc(C2c3cc4c(cc3C(OC3OC5COC(C)OC5C(O)C3O)C3COC(=O)C23)OCO4)cc(OC)c1O (stereo not drawn) + NC1CC1c1ccc(-c2cccc(O)c2)cc1 ... 2.76
